Molecular target: hcGAS (Homo sapiens, UniProt Q8N884)
Sequence (Q8N884 whole entry): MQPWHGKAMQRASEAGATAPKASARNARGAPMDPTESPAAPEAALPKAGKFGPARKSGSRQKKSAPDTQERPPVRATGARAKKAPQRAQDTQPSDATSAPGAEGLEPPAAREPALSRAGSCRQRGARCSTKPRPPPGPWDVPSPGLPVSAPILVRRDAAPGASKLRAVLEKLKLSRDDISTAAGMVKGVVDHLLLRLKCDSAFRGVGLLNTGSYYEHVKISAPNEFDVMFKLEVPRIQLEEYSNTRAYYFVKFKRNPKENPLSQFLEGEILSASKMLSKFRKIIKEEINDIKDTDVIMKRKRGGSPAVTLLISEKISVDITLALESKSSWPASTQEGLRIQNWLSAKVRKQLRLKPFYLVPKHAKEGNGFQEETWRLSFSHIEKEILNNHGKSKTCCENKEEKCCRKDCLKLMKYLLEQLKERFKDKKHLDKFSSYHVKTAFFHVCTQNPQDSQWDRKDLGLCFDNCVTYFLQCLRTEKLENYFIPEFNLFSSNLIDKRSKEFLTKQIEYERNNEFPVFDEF
Assay: hcGAS LCMS assay (direct measurement of cGAMP production by LC/MS)
Assay type: biochemical
Details: 4 h incubation with enzyme and substrates; cGAMP production by LC/MS; class symbols; read-out: hcGAS LCMS IC50
Assignment: determine reported IC50 for the given molecules.

Illustrative cases are given below, each with its answer.
1) COc1cccc(OC)c1-c1cc(C(=O)Nc2nnc(-n3nccc3N)s2)oc(=O)c1OC[C@H](CO)N1CCSCC1 [79B*] = 1 to 5 nM
2) COc1cccc(OC)c1-c1cc(C(=O)Nc2nnc(-n3nccc3N)s2)oc(=O)c1OCCCO [Compound 40] = 0.5 to 1 nM
3) COc1cccc(OC)c1-c1cc(C(=O)Nc2nnc(-n3nccc3N)s2)oc(=O)c1O[C@@H]1CCOC1 [52B*] = 0.5 to 1 nM
4) COCCOc1c(-c2c(Cl)cccc2OC)cc(C(=O)Nc2nnc(-n3nccc3N)s2)oc1=O (single isomer, unassigned) [Compound 15B*] = < 0.5 nM
5) COc1cccc(OC)c1-c1cc(C(=O)Nc2nnc(-n3nccc3N)s2)oc(=O)c1OCCN1CC2(CSC2)C1 [Compound 65] = 0.5 to 1 nM
6) COc1cccc(OC)c1-c1cc(C(=O)Nc2nnc(-n3nccc3N)s2)oc(=O)c1OCCN1C2CSCC1C2 [Compound 94] = 0.5 to 1 nM
7) COc1cccnc1-c1cc(C(=O)Nc2nnc(-n3nccc3N)s2)oc(=O)c1O[C@@H]1CC[C@@H](O)C1 (single isomer, unassigned) [112A*] = 1 to 5 nM
8) COCCOc1c(-c2c(Cl)cccc2C#N)cc(C(=O)Nc2nnc(-n3nccc3N)s2)oc1=O [Compound 45] = < 0.5 nM

Look up IC50 for the entries below, preserving their order.
1. COc1cccc(OC)c1-c1cc(C(=O)Nc2nnc(-n3nccc3N)s2)oc(=O)c1OC[C@H](CO)OC [38A*]
2. COC[C@H](CO)COc1c(-c2c(OC)cccc2OC)cc(C(=O)Nc2nnc(-n3nccc3N)s2)oc1=O [92B*]
3. COc1cccc(OC)c1-c1cc(C(=O)Nc2nnc(-n3nccc3N)s2)oc(=O)c1OC[C@@H](C)O [Compound 46A]
4. COc1cccnc1-c1cc(C(=O)Nc2nnc(-n3nccc3N)s2)oc(=O)c1O[C@H](C)CO [Compound 107B]
5. COc1cccc(OC)c1-c1cc(C(=O)Nc2nnc(-n3nccc3N)s2)oc(=O)c1OCCN1C[C@@H]2C[C@H]1CS2 [93A*]
6. COc1cccc(OC)c1-c1cc(C(=O)Nc2nnc(-n3nccc3N)s2)oc(=O)c1OC[C@@H](CO)OC [38B*]
7. COc1cccc(C#N)c1-c1cc(C(=O)Nc2nnc(-n3nccc3Cl)s2)oc(=O)c1OCCO [Compound 26]

Solution:
0.5 to 1 nM
1 to 5 nM
0.5 to 1 nM
0.5 to 1 nM
0.5 to 1 nM
0.5 to 1 nM
< 0.5 nM

Look up IC50 for the entries below, preserving their order.
1. COc1cccnc1-c1cc(C(=O)Nc2nnc(-n3nccc3N)s2)oc(=O)c1O[C@H]1CCC[C@H](OC)C1 (single isomer, unassigned) [113B*]
2. COCCOc1cccc(OC)c1-c1cc(C(=O)Nc2nnc(-n3nccc3N)s2)oc(=O)c1OCCOC [Compound 27]
3. COC[C@H](C)Oc1c(-c2c(OC)cccc2OC)cc(C(=O)Nc2nnc(-n3nccc3N)s2)oc1=O [Compound 47A]
4. COCCOCCOc1c(-c2c(OC)cccc2OC)cc(C(=O)Nc2nnc(-n3nccc3N)s2)oc1=O [Compound 30]

Solution:
1: 0.5 to 1 nM; 2: 1 to 5 nM; 3: 1 to 5 nM; 4: 0.5 to 1 nM
